# Measured Target: High affinity nerve growth factor receptor (Homo sapiens); note: in the data inactive means no Kd found up to 30 µM
# Sequence (P04629 whole entry): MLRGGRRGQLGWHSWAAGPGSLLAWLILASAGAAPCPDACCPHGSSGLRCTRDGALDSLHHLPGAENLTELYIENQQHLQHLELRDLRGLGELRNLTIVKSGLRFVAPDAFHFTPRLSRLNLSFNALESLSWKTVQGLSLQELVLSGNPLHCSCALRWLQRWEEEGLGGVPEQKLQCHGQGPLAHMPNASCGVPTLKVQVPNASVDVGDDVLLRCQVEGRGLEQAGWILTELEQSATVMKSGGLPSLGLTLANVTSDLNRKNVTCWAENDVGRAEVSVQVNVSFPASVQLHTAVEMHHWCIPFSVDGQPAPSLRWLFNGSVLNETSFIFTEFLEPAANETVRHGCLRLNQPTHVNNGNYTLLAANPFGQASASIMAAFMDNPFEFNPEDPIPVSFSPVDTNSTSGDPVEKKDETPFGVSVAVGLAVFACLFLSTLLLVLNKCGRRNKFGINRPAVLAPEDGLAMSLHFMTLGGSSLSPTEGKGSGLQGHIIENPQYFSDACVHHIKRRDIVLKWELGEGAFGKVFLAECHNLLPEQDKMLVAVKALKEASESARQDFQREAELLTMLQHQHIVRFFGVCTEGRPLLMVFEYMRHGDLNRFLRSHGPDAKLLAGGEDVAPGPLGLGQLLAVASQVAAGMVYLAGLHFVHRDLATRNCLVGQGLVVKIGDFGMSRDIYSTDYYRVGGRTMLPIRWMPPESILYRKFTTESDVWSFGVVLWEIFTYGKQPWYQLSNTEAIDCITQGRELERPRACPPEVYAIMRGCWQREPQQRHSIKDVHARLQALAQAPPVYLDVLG
The source made the active and inactive calls.
Outcomes: True = active, False = inactive

- Compound: "COCC(=O)NC/C=C/c1ccc2ncnc(Nc3ccc(Oc4ccc(C)nc4)c(C)c3)c2c1"
  Classification: "False"
- Compound: "COc1ccc(S(=O)(=O)N(C(C)=O)c2ccccc2/C=C/c2cc[n+]([O-])cc2)cc1"
  Classification: "False"
- Compound: "C[C@@H](NC(=O)c1ncnc(N)c1Cl)c1ncc(C(=O)Nc2cc(C(F)(F)F)c(Cl)cn2)s1"
  Classification: "False"
- Compound: "NC1(c2ccc(-c3nc4ccn5c(=O)[nH]nc5c4cc3-c3ccccc3)cc2)CCC1"
  Classification: "False"
- Compound: "O=C1NC(=O)[C@@H](c2cn3c4c(cccc24)CCC3)[C@@H]1c1c[nH]c2ccccc12 [TIVANTINIB]"
  Classification: "False"
- Compound: "COCc1c(-c2ccc(NC(=O)Nc3cc(C(F)(F)F)ccc3F)c(F)c2)c2c(N)ncnn2c1CN1CCOCC1"
  Classification: "False"
- Compound: "Cc1cc(Nc2ncc(Cl)c(Nc3ccccc3S(=O)(=O)C(C)C)n2)c(OC(C)C)cc1C1CCNCC1"
  Classification: "False"
- Compound: "CNC(=O)c1nn(C)c2c1C(C)(C)Cc1cnc(Nc3ccc(N4CCN(C)CC4)cc3)nc1-2"
  Classification: "True"
- Compound: "C[C@@H](N)c1ccc(C(=O)Nc2ccnc3[nH]ccc23)cc1"
  Classification: "False"
- Compound: "C=CC(=O)N1CCC[C@H](n2c(=O)n(-c3ccc(Oc4ccccc4)cc3)c3c(N)ncnc32)C1"
  Classification: "False"
- Compound: "N#CC1(c2ccc(NC(=O)c3cccnc3NCc3ccncc3)cc2)CCCC1"
  Classification: "False"
- Compound: "O=c1[nH]ccc2cc(OC3CCNCC3)ccc12 [SAR-407899 FREE BASE]"
  Classification: "False"
- Compound: "Cn1cc(-c2cnc3ccc4ccc(CS(=O)(=O)NCc5ccccn5)cc4c(=O)c3c2)cn1"
  Classification: "False"
- Compound: "COc1c(OCCCN2CCOCC2)ccc2c1N=C(NC(=O)c1cnc(N)nc1)N1CCN=C21"
  Classification: "False"
- Compound: "CO[C@H]1C[C@@H]2CC[C@@H](C)[C@@](O)(O2)C(=O)C(=O)N2CCCC[C@H]2C(=O)O[C@H]([C@H](C)C[C@@H]2CC[C@@H](O)[C@H](OC)C2)CC(=O)[C@H](C)/C=C(\\C)[C@@H](O)[C@@H](OC)C(=O)[C@H](C)C[C@H](C)/C=C/C=C/C=C/1C"
  Classification: "False"

====

# Measured Target: General transcription and DNA repair factor IIH helicase subunit XPD (Homo sapiens, UniProt P18074); note: in the data inactive means no Kd found up to 30 µM
# Sequence (P18074 whole entry): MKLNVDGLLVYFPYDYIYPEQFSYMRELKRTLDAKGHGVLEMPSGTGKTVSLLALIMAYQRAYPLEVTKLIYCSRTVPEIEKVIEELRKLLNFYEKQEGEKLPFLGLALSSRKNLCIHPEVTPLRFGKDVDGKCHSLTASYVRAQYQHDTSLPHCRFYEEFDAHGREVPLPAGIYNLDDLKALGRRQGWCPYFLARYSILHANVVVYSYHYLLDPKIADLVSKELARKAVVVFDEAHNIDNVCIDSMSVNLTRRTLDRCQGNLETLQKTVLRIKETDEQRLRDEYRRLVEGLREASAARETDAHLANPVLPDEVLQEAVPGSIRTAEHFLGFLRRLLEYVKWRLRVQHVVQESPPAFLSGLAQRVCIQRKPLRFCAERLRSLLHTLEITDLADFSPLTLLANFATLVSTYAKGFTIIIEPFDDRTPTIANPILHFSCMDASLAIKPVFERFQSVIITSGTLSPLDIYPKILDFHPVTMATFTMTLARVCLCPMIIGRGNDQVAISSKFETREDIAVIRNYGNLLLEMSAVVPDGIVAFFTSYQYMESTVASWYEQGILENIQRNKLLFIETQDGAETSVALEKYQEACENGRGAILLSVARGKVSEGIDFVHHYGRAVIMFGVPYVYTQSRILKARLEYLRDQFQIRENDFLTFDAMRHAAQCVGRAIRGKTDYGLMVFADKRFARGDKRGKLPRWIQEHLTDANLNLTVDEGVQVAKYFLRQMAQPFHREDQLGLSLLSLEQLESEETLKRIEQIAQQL
# Condition Label: read-out: Kd apparent; k-562, colo 205, sk-n-be(2) and mv-4-11
The source made the active and inactive calls. Cut-off read from the data, not from the text of the source: actives have a measured Kd and inactives only a lower limit.
Classes used: 1 = active, 0 = inactive

- Input Smiles: "COc1cc2ncnc(Oc3cccc(NC(=O)Nc4cc(C(C)(C)C(F)(F)F)on4)c3)c2cc1OC"
  Classification: 0
- Input Smiles: "CC(C)(C)c1nc(-c2cccc(NS(=O)(=O)c3c(F)cccc3F)c2F)c(-c2ccnc(N)n2)s1"
  Classification: 0
- Input Smiles: "Cc1nc2cc(-c3nn(C(C)C)c4ncnc(N)c34)ccc2o1"
  Classification: 0
- Input Smiles: "Cn1ncc(Cl)c1-c1cc(C(=O)N[C@H](CN)Cc2ccc(F)c(F)c2)oc1Cl"
  Classification: 0
- Input Smiles: "N#CC[C@H](C1CCCC1)n1cc(-c2ncnc3[nH]ccc23)cn1"
  Classification: 0
- Input Smiles: "CN1CCN(CCOc2cc(OC3CCOCC3)c3c(Nc4c(Cl)ccc5c4OCO5)ncnc3c2)CC1"
  Classification: 0
- Input Smiles: "CO[C@H]1C[C@@H]2CC[C@@H](C)[C@@](O)(O2)C(=O)C(=O)N2CCCC[C@H]2C(=O)O[C@H]([C@H](C)C[C@@H]2CC[C@@H](OP(C)(C)=O)[C@H](OC)C2)CC(=O)[C@H](C)/C=C(\\C)[C@@H](O)[C@@H](OC)C(=O)[C@H](C)C[C@H](C)/C=C/C=C/C=C/1C"
  Classification: 0
- Input Smiles: "Cc1cnc(NC(=O)Nc2cc(Br)c(C)cc2OC[C@@H]2CNCCO2)cn1"
  Classification: 0
- Input Smiles: "CCn1c(C(=O)N(C2CC2)C2CC2)cc2c3c(ncn3C)c(Nc3cc(C)n(C)n3)nc21"
  Classification: 0
- Input Smiles: "O=C(Cc1ccc(-c2ccc(OCCN3CCOCC3)cc2)cn1)NCc1ccccc1"
  Classification: 0
- Input Smiles: "NC(=O)Nc1cc(-c2cccc(F)c2)sc1C(=O)N[C@H]1CCCNC1"
  Classification: 0
- Input Smiles: "CC(C)c1cc(CNc2nc(Nc3cc(C4CC4)[nH]n3)cc(N3CCN(C)CC3)n2)on1"
  Classification: 1
- Input Smiles: "FC(F)(F)c1ccc(/C=C/c2nc(COc3ccc(CCCCn4ccnn4)cc3)co2)cc1"
  Classification: 0
- Input Smiles: "C[C@@H](Oc1cc(-n2cnc3ccc(CN4CCN(C)CC4)cc32)sc1C(N)=O)c1ccccc1C(F)(F)F"
  Classification: 0
- Input Smiles: "Cc1cc(C(=O)NOCCO)c(Nc2ccc(I)cc2F)n(C)c1=O"
  Classification: 0

====

# Measured Target: Epithelial discoidin domain-containing receptor 1 (Homo sapiens, UniProt Q08345); note: in the data inactive means no Kd found up to 30 µM
# Sequence (Q08345 whole entry, the tested form may be a part): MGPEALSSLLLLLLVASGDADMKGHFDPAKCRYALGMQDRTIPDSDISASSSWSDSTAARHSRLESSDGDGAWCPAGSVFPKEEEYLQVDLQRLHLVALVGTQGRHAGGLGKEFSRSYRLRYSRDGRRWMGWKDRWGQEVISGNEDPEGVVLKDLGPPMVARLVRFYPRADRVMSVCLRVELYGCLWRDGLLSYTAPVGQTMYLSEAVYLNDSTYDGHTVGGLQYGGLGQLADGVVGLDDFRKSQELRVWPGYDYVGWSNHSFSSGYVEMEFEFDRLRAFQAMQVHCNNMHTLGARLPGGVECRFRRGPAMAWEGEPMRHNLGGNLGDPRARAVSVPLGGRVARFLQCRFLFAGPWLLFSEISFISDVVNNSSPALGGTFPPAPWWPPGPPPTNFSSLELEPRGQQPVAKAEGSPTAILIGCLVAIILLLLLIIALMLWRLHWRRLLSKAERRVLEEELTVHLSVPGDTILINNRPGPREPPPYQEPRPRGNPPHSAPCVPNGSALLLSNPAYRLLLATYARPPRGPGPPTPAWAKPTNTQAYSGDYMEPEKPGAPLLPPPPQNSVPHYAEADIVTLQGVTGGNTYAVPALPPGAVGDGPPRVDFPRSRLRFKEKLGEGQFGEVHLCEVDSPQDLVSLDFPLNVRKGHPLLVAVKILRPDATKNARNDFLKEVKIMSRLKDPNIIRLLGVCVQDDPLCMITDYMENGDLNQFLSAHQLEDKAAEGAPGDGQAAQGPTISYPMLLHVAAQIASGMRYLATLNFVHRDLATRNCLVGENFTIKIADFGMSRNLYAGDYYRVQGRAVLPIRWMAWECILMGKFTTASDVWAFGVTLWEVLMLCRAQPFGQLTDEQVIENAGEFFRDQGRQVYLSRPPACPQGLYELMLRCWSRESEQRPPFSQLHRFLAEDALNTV
Calls of active or inactive are those of the source.
Possible outcomes: active, inactive

- Molecule: "O=C(Nc1nc2cccc(-c3ccc(CN4CCS(=O)(=O)CC4)cc3)n2n1)C1CC1"
  Classification: "inactive"
- Molecule: "CNC(=O)c1nn(C)c2c1C(C)(C)Cc1cnc(Nc3ccc(N4CCN(C)CC4)cc3)nc1-2"
  Classification: "active"
- Molecule: "C=CC(=O)N1CCC[C@H](n2c(=O)n(-c3ccc(Oc4ccccc4)cc3)c3c(N)ncnc32)C1"
  Classification: "inactive"
- Molecule: "Cc1nc(NC(=O)N2CCC[C@H]2C(N)=O)sc1-c1ccnc(C(C)(C)C(F)(F)F)c1"
  Classification: "inactive"
- Molecule: "C[C@@H](N)c1ccc(C(=O)Nc2ccnc3[nH]ccc23)cc1"
  Classification: "inactive"
- Molecule: "COc1ccc(S(=O)(=O)N(C(C)=O)c2ccccc2/C=C/c2cc[n+]([O-])cc2)cc1"
  Classification: "inactive"
- Molecule: "Cc1[nH]c(/C=C2\\C(=O)Nc3ccccc32)c(C)c1CCC(=O)O [ORANTINIB]"
  Classification: "inactive"
- Molecule: "C=CC(=O)Nc1cc2c(Nc3ccc(F)c(Cl)c3)ncnc2cc1C#CC(C)(C)N1CCN(C)CC1 [AV-412 FREE BASE]"
  Classification: "inactive"
- Molecule: "COc1cc([C@@H]2c3cc4c(cc3[C@H](O)[C@H]3COC(=O)[C@@H]23)OCO4)cc(OC)c1OC"
  Classification: "inactive"
- Molecule: "O=c1[nH]ccc2cc(OC3CCNCC3)ccc12 [SAR-407899 FREE BASE]"
  Classification: "inactive"
- Molecule: "Cc1cccc(-c2nn3c(c2-c2ccnc4ccc(C(N)=O)cc24)CCC3)n1"
  Classification: "inactive"
- Molecule: "Cn1cc(-c2cnn3c(N)c(Br)c([C@@H]4CCCNC4)nc23)cn1"
  Classification: "inactive"
- Molecule: "NC(=O)Nc1cc(-c2cccc(F)c2)sc1C(=O)N[C@H]1CCCNC1"
  Classification: "inactive"
- Molecule: "COCc1c(-c2ccc(NC(=O)Nc3cc(C(F)(F)F)ccc3F)c(F)c2)c2c(N)ncnn2c1CN1CCOCC1"
  Classification: "active"
- Molecule: "CNC(=O)c1cc(Oc2ccc(NC(=O)Nc3cc(C(C)(C)C)nn3-c3ccc4ncccc4c3)c(F)c2)ccn1"
  Classification: "active"
- Molecule: "CO[C@H]1C[C@@H]2CC[C@@H](C)[C@@](O)(O2)C(=O)C(=O)N2CCCC[C@H]2C(=O)O[C@H]([C@H](C)C[C@@H]2CC[C@@H](O)[C@H](OC)C2)CC(=O)[C@H](C)/C=C(\\C)[C@@H](O)[C@@H](OC)C(=O)[C@H](C)C[C@H](C)/C=C/C=C/C=C/1C"
  Classification: "inactive"
- Molecule: "COCC(=O)NC/C=C/c1ccc2ncnc(Nc3ccc(Oc4ccc(C)nc4)c(C)c3)c2c1"
  Classification: "inactive"
- Molecule: "NC1(c2ccc(-c3nc4ccn5c(=O)[nH]nc5c4cc3-c3ccccc3)cc2)CCC1"
  Classification: "inactive"
- Molecule: "FC(F)(F)c1ccc(/C=C/c2nc(COc3ccc(CCCCn4ccnn4)cc3)co2)cc1"
  Classification: "inactive"
- Molecule: "NC(=O)c1c(OCc2c(F)cc(Br)cc2F)nsc1NC(=O)NCCCCN1CCCC1"
  Classification: "active"
- Molecule: "O=C(Nc1cc(C(F)(F)F)cc(C(F)(F)F)c1)c1cc(Cl)ccc1O"
  Classification: "inactive"
- Molecule: "CCNC(=O)C#Cc1ccc2c(c1)NC(=O)/C2=C(\\Nc1ccc(CN(C)C)cc1)c1ccccc1"
  Classification: "active"
- Molecule: "Cc1csc(-c2nnc(Nc3ccc(Oc4ncccc4-c4ccnc(N)n4)cc3)c3ccccc23)c1"
  Classification: "active"
- Molecule: "CN(C[C@@H]1COCCO1)S(=O)(=O)Nc1ccc2ccc3ncc(-c4cnn(C)c4)cc3c(=O)c2c1"
  Classification: "inactive"
- Molecule: "Cn1cnc2c(F)c(Nc3ccc(Br)cc3F)c(C(=O)NOCCO)cc21"
  Classification: "inactive"
- Molecule: "Cc1cnc(NC(=O)Nc2cc(Br)c(C)cc2OC[C@@H]2CNCCO2)cn1"
  Classification: "inactive"
- Molecule: "O=C1NC(=O)[C@@H](c2cn3c4c(cccc24)CCC3)[C@@H]1c1c[nH]c2ccccc12 [TIVANTINIB]"
  Classification: "inactive"
- Molecule: "CCOc1cc2ncc(C#N)c(Nc3ccc(F)c(Cl)c3)c2cc1NC(=O)/C=C/CN(C)C"
  Classification: "inactive"
- Molecule: "CN1CCN(CCOc2cc(OC3CCOCC3)c3c(Nc4c(Cl)ccc5c4OCO5)ncnc3c2)CC1"
  Classification: "active"
- Molecule: "C#Cc1cccc(Nc2ncnc3cc(OC)c(OCCCCCCC(=O)NO)cc23)c1"
  Classification: "inactive"
- Molecule: "CCS(=O)(=O)c1cccc(-c2cc(C(=O)NC3CCN(C)CC3)c(C)c3[nH]c4ncc(C)cc4c23)c1"
  Classification: "active"
- Molecule: "C[C@@H](Oc1cc(C(=O)Nc2ccc(C(=O)N3CCN(C)CC3)cc2)nnc1N)c1c(Cl)ccc(F)c1Cl"
  Classification: "inactive"
